Task for the reader: assign each of the following compounds its reported IC50.
Procedure Text: Antioxidant activity assessed as DPPH radical scavenging activity after 20 mins by UV/VIS Spectrophotometric method
Assay type: functional
Your answer should be a plain number; it is taken to be in µg/mL.

Lookup result for Cc1ccc(C2C(C#N)=C(N)OC3=C2CNc2c3cccc2[N+](=O)[O-])cc1 (stereo unspecified) ; measured IC50: 183.1

Lookup result for COc1ccc(C2C3CNc4c(cccc4[N+](=O)[O-])C3=NN2c2ccccc2)cc1 (stereo unspecified) ; measured IC50: 138.8

Lookup result for O=[N+]([O-])c1cccc2c1NCC1C2=NN(c2ccccc2)C1c1ccc(Br)cc1 (stereo unspecified) ; measured IC50: 226.97

Lookup result for COc1ccc(C2C(C#N)=C(N)OC3=C2CNc2c3cccc2[N+](=O)[O-])cc1 (stereo unspecified) ; measured IC50: 65.42

Lookup result for O=[N+]([O-])c1cccc2c1NCC1C2=NN(c2ccccc2)C1c1ccccc1 (stereo unspecified) ; measured IC50: 146.85

Lookup result for N#CC1=C(N)OC2=C(CNc3c2cc(Cl)cc3[N+](=O)[O-])C1c1ccc(Cl)cc1 (stereo unspecified) ; measured IC50: 132.65

Lookup result for COc1ccc(C2C(C#N)=C(N)OC3=C2CNc2c3cccc2[N+](=O)[O-])cc1OC (stereo unspecified) ; measured IC50: 124.38

Lookup result for O=[N+]([O-])c1cccc2c1NCC1C2=NN(c2ccccc2)C1c1ccc(Cl)cc1 (stereo unspecified) ; measured IC50: 202.18

Lookup result for O=[N+]([O-])c1cc(Cl)cc2c1NCC1C2=NNC1c1ccc(F)cc1 (stereo unspecified) ; measured IC50: 155.12

Lookup result for CCOc1ccc(C2C3CNc4c(cccc4[N+](=O)[O-])C3=NN2c2ccccc2)c(OCC)c1 (stereo unspecified) ; measured IC50: 170.8

Lookup result for N#CC1=C(N)OC2=C(CNc3c2cccc3[N+](=O)[O-])C1c1ccc(F)cc1 (stereo unspecified) ; measured IC50: 128.58

Lookup result for COc1ccc(C2C(C#N)=C(N)OC3=C2CNc2c3cccc2[N+](=O)[O-])c(OC)c1 (stereo unspecified) ; measured IC50: 122.13

Lookup result for COc1ccc(C2C3CNc4c(cccc4[N+](=O)[O-])C3=NN2c2ccccc2)cc1OC (stereo unspecified) ; measured IC50: 169.91

Lookup result for N#CC1=C(N)OC2=C(CNc3c2cccc3[N+](=O)[O-])C1c1cccs1 (stereo unspecified) ; measured IC50: 194.81

Lookup result for N#CC1=C(N)OC2=C(CNc3c2cccc3[N+](=O)[O-])C1c1ccc(Br)cc1 (stereo unspecified) ; measured IC50: 125.08

Lookup result for O=C1O[C@H]([C@@H](O)CO)C(O)=C1O [ASCORBIC ACID] ; measured IC50: 28.02

Lookup result for COc1ccc(N2N=C3c4cc(Cl)cc([N+](=O)[O-])c4NCC3C2c2ccc(Cl)cc2)cc1 (stereo unspecified) ; measured IC50: 151.83

Lookup result for O=[N+]([O-])c1cc(Cl)cc2c1NCC1C2=NNC1c1ccc(Cl)cc1 (stereo unspecified) ; measured IC50: 169.33

Lookup result for O=[N+]([O-])c1cccc2c1NCC1C2=NN(c2ccccc2)C1c1ccc(F)cc1 (stereo unspecified) ; measured IC50: 205.13

Lookup result for N#CC1=C(N)OC2=C(CNc3c2cccc3[N+](=O)[O-])C1c1ccc(Cl)cc1 (stereo unspecified) ; measured IC50: 118.03

Lookup result for Cc1ccc(C2C3CNc4c(cccc4[N+](=O)[O-])C3=NN2c2ccccc2)cc1 (stereo unspecified) ; measured IC50: 185.06
